Where do the numbers come from? From PubChem BioAssay (NCI).

Would you mind telling me the reported TGI of each entry?
Test system: NCI/ADR-RES ovarian
Test: NCI tumour cell line growth inhibition, 48 h

Dear colleague, I am looking for the recorded TGI of the following compound: `Cc1cc(C(=O)O)c(C)n1-c1cccc(C(=O)O)c1` > 100 µM

Dear colleague, I am looking for the recorded TGI of the following compound: `COc1ccc(/C=C2\CN(Cc3cn(CCNc4ccnc5cc(Cl)ccc45)nn3)C/C(=C\c3ccc(OC)c(OC)c3)C2=O)cc1OC` > 100 µM

Dear colleague, I am looking for the recorded TGI of the following compound: `COc1c(-c2ccc(O)c(O)c2)oc2c(O)c(O)cc(O)c2c1=O` > 100 µM

====

Would you mind telling me the reported TGI of each entry?
System: KM12 colon
Test: NCI tumour cell line growth inhibition, 48 h

Dear colleague, I am looking for the recorded TGI of the following compound: `Clc1ccc2nc(-c3ccccc3)nc(Cl)c2c1` > 100 µM

Dear colleague, I am looking for the recorded TGI of the following compound: `Cc1cc2nc3cc(C)c(N)cc3[n+](-c3ccccc3)c2cc1N` 17.6 µM

Dear colleague, I am looking for the recorded TGI of the following compound: `CCCNC(=O)c1ccc(Cl)cc1Cl` > 100 µM

Dear colleague, I am looking for the recorded TGI of the following compound: CCOC(=O)C1=C(C)N(NC(N)=O)C(C)(O)C12CCOC2=O (stereo not given) > 100 µM

Dear colleague, I am looking for the recorded TGI of the following compound: Cc1ccc(C(SCC(N)C(=O)O)(c2ccccc2)c2ccccc2)cc1 (stereo not given) 5.98 µM

Dear colleague, I am looking for the recorded TGI of the following compound: `O=[N+]([O-])c1ccccc1C=NC12CC3CC(CC(C3)C1)C2` > 100 µM

Dear colleague, I am looking for the recorded TGI of the following compound: `O=S1(=O)CS(=O)(=O)OCCO1` 121 µM

Dear colleague, I am looking for the recorded TGI of the following compound: `COc1cc(Nc2nnc3n2S(=O)(=O)c2cc(C)c(Cl)cc2S3)cc(OC)c1` > 100 µM

Dear colleague, I am looking for the recorded TGI of the following compound: `CC1=C(C(=O)Nc2ccc([N+](=O)[O-])cc2)C(c2ccc3c(c2)OCO3)C(C(=O)Nc2ccc([N+](=O)[O-])cc2)=C(C)N1` 24.9 µM

Dear colleague, I am looking for the recorded TGI of the following compound: COC(=O)C1=CN(C2CCCCC2)C2(c3ccccc3)c3ccccc3C(=O)OC(=O)C12 (stereo not given) > 100 µM

Dear colleague, I am looking for the recorded TGI of the following compound: CCOC(=O)CCC(NC(=O)OCc1ccccc1)C(=O)NC(CCC(=O)OCC)C(=O)NNC(=O)OC(C)(C)C (stereo not given) > 100 µM

Dear colleague, I am looking for the recorded TGI of the following compound: `O=C1c2ccccc2CC12Cc1ccccc1C2` > 100 µM

Dear colleague, I am looking for the recorded TGI of the following compound: CC12CO[C@@](C)(CC(S(=O)(=O)c3ccccc3)C1)O2 (stereo not given in full) > 100 µM

Dear colleague, I am looking for the recorded TGI of the following compound: COC1C(OC(=O)/C=C/C=C/C=C/C=C\C(=O)O)CCC2(CO2)C1C1(C)OC1CC=C(C)C (stereo not given) > 200 µM

Dear colleague, I am looking for the recorded TGI of the following compound: Fc1cccc(Cl)c1C1SCc2nc3cc4ccccc4cc3n21 (stereo not given) > 100 µM

Dear colleague, I am looking for the recorded TGI of the following compound: `O=c1[nH]nc(Cn2c3ccc(Br)cc3c3nc4ccccc4nc32)n1C1CCCCC1` > 100 µM

Dear colleague, I am looking for the recorded TGI of the following compound: `Cc1ncc([N+](=O)[O-])n1CCNCCCn1ccnc1[N+](=O)[O-]` > 100 µM

Dear colleague, I am looking for the recorded TGI of the following compound: Cc1cccc(N2C(=O)C(=O)C(c3nc4ccccc4s3)/C(=N/NC(=S)NN)C2=O)c1C (stereo not given) > 100 µM

Dear colleague, I am looking for the recorded TGI of the following compound: `O=[N+]([O-])c1ccc(/C=C/c2csnn2)cc1` > 100 µM

Dear colleague, I am looking for the recorded TGI of the following compound: Cc1ccc(C2=C(c3ccccc3)C(c3ccccc3)Oc3ccc(C)cc32)cc1 (stereo not given) 23.6 µM
